Tested on: Plasmodium falciparum
assaySummary: Antimalarial activity against Plasmodium falciparum 3D7 after 48 hrs by parasite lactate dehydrogenase assay
Type: functional, organism-based
measurementConditions: 3D7, 48 h
pIC50: −log10 of the molar value.
measuredAttribute: pIC50

Previously resolved entries follow.
| smilesStructure | pIC50 |
| --- | --- |
| CC(=O)OC[C@H]1O[C@@H]2c3cc(C(C)(C)C)ccc3S(=O)(=O)C[C@@H]2[C@@H](OC(C)=O)[C@@H]1OC(C)=O | < 4.00 |
| COc1ccc2c(c1)[C@H]1O[C@H](COCc3ccccc3)[C@@H](OCc3ccccc3)[C@H](OCc3ccccc3)[C@H]1CS2 | < 4.00 |
| Cc1ccc2c(c1)[C@H]1O[C@H](COCc3ccccc3)[C@@H](OCc3ccccc3)[C@H](OCc3ccccc3)[C@H]1CS2(=O)=O | 5.63 |

## Task So what does the record say about pIC50 for `Cc1cccc2c1SC[C@@H]1[C@@H](OCc3ccccc3)[C@H](OCc3ccccc3)[C@@H](COCc3ccccc3)O[C@H]21` ?
## Result < 4.00

## Task Same lookup for `Cc1ccc2c(c1)[C@@H]1O[C@H](COCc3ccccc3)[C@@H](OCc3ccccc3)[C@H](OCc3ccccc3)[C@H]1CS2(=O)=O` , please.
## Result 5.63

## Task Then what about the compound `Cc1ccc2c(c1)[C@H]1O[C@H](COCc3ccccc3)[C@@H](OCc3ccccc3)[C@H](OCc3ccccc3)[C@H]1CS2` ?
## Result < 4.00

----------
The compounds listed here are annotated with their viability at 48 h, 100 µM.
assaySummary: Cytotoxicity against human WI38 cells assessed as cell viability at 100 uM after 48 hrs by SRB assay
Type: cell-based, WI-38
measurementConditions: read-out: Activity
Your answer is read as %, so omit the unit and give the number.

| smilesStructure | measureUnit | viability at 48 h, 100 µM |
| --- | --- | --- |
| Cc1cccc2c1[S@+]([O-])C[C@@H]1[C@@H](OCc3ccccc3)[C@H](OCc3ccccc3)[C@@H](COCc3ccccc3)O[C@H]21 | % | 52.5 |
| c1ccc(COC[C@H]2O[C@@H]3c4ccccc4SC[C@@H]3[C@@H](OCc3ccccc3)[C@@H]2OCc2ccccc2)cc1 | % | 58.1 |
| [O-][S@@+]1C[C@@H]2[C@@H](OCc3ccccc3)[C@H](OCc3ccccc3)[C@@H](COCc3ccccc3)O[C@@H]2c2c1ccc1ccccc21 | % | 89 |
| COc1ccc2c(c1)[C@H]1O[C@H](COCc3ccccc3)[C@@H](OCc3ccccc3)[C@H](OCc3ccccc3)[C@H]1C[S@+]2[O-] | % | 79.9 |
| Cc1cccc2c1SC[C@@H]1[C@@H](OCc3ccccc3)[C@H](OCc3ccccc3)[C@@H](COCc3ccccc3)O[C@H]21 | % | 68.8 |

## Task I'd like to know its viability at 48 h, 100 µM. The compound in question is `COc1ccc2c(c1)[C@H]1O[C@H](COCc3ccccc3)[C@@H](OCc3ccccc3)[C@H](OCc3ccccc3)[C@H]1C[S@@+]2[O-]`
## Result 27.2

## Task // same read-out, input: `Cc1ccc2c(c1)[C@H]1O[C@H](COCc3ccccc3)[C@@H](OCc3ccccc3)[C@H](OCc3ccccc3)[C@H]1C[S@@+]2[O-]`
## Result 70.3
